Sourced from patent US20250388666A1

Quick list: relative KD to chimeric parental antibody expt 2 per entry.
assayedTarget: T1, CEACAM1-HIS (Sino Biologics Inc.) (Homo sapiens (Human), UniProt P13688 35-428)
T1 construct: bought; not shown: His tag
T1 sequence: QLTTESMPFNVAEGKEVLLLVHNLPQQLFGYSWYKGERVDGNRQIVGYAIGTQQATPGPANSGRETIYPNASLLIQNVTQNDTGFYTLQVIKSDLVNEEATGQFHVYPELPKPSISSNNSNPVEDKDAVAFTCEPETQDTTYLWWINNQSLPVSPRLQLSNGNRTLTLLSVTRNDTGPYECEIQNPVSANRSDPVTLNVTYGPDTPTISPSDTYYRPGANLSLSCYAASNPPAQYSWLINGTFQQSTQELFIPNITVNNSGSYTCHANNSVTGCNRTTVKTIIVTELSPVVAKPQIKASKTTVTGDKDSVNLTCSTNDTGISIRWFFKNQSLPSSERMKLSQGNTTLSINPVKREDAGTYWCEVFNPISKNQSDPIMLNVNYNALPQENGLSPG
assayDetails: SPR multi-cycle
Lab book: enter the figure in ratio, no units written.

>>> obsvalue("VH2/Vκ2 (antibody, V domains shown) VH: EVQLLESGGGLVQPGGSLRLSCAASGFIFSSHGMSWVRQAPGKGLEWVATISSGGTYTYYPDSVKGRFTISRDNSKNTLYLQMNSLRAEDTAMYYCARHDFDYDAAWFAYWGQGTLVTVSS VL: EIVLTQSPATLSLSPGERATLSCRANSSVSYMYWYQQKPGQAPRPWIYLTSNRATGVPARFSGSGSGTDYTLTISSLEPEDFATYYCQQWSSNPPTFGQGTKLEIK")
1.25
>>> obsvalue("VH1/Vκ2 (antibody, V domains shown) VH: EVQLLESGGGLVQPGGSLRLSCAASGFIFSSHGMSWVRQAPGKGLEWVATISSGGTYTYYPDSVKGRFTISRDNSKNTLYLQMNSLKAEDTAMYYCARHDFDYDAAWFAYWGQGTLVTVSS VL: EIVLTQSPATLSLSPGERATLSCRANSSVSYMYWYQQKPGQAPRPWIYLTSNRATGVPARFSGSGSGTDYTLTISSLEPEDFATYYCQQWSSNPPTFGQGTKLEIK")
1.27
>>> obsvalue("VH1/Vκ1 (antibody, V domains shown) VH: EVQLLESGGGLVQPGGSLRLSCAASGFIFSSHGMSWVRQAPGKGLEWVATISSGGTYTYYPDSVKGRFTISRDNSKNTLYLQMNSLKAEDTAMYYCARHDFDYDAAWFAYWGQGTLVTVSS VL: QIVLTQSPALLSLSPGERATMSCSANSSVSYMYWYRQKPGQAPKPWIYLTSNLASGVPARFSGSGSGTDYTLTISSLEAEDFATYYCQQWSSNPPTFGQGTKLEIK")
1.4

// next entry
Quick note, relative KD to chimeric parental antibody expt 2 for VH2/Vκ1 (antibody, V domains shown) VH: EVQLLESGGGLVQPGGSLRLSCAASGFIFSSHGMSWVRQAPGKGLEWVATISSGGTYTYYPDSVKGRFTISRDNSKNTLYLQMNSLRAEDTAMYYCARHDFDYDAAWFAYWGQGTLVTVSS VL: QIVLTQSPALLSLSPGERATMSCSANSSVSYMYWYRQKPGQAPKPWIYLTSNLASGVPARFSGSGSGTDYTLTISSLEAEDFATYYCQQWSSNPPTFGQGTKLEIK landed at 1.22
